Experiment: Antimicrobial excretion in urine of treated pigs through the withdrawal period, LC-MS/MS
Conditions: both, Landrace × Large White, pig, urine, im
Reported Endpoint: half-life (h)
Please state the figure in h; there is no need to write the unit.

So what does the record say about half-life for CN(C)[C@@H]1C(O)=C(C(N)=O)C(=O)[C@@]2(O)C(O)=C3C(=O)c4c(O)cccc4[C@@](C)(O)[C@H]3[C@H](O)[C@@H]12 [Oxytetracycline] ?
100

Reference source for all entries: paper PMC8300810
